FYI, the data here is from PubChem BioAssay.

Measured inhibition, listed per entry.
assay: growth inhibition, MDA-MB-436, cell-based, BGB or cisplatin combos, synergistic combos for chromothripsis tumors (AID 1671458); conditions: MDA-MB-436 breast carcinoma growth inhibition, drug combinations; measured here: cisplatin combination; at 5 µM; stronger effect = higher value;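 further: cells exposed for 96 hours; 0% = vehicle DMSO and 100% = killing by high DMSO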
Experimental readout: inhibition (%)

entry_smiles=Nc1ncnc2c1c(-c1cnc3[nH]ccc3c1)nn2C1CCCC1 experimental_readout=inhibition measured=36.2
entry_smiles=COc1cc2ncnc(-n3nc(-c4ccccn4)nc3N)c2cc1OC experimental_readout=inhibition measured=-24.4
entry_smiles=CCCCc1nc2cc(/C=C/C(=O)NO)ccc2n1CCN(CC)CC experimental_readout=inhibition measured=61.6
entry_smiles=CC(=O)[C@]1(N)Cc2c(O)c3c(c(O)c2[C@@H](O[C@H]2C[C@H](O)[C@H](O)CO2)C1)C(=O)c1ccccc1C3=O experimental_readout=inhibition measured=84

---

experiment: drug combination growth inhibition, ovarian cancer – cell-based, oncology-focused library, rucaparib conditional, profiling panel (AID 1508598); details: patient-derived ovarian cancer cells, CellTiter-Glo viability, 144 h; at 0.00488 µM; OCI-C5x cells; with rucaparib 10 µM; stronger effect = lower value; 100% = cells with rucaparib alone
Listing: viability of selected compounds
Experimental readout: viability (%)

compound="CC1COC2(CCN(c3nc(=O)c4cc(C(F)(F)F)cc([N+](=O)[O-])c4s3)CC2)O1 (stereo not drawn)" result_units=% measured=129
compound=Cc1cnc(NC(=O)Nc2cc(Br)c(C)cc2OC[C@@H]2CNCCO2)cn1 result_units=% measured=103
compound=Oc1cccc(-c2nc(N3CCOCC3)c3oc4ncccc4c3n2)c1 result_units=% measured=75.7

---

test: viability loss with induced miR-34 in A549 – imaging, A549 dox-inducible miR-34, nuclei and caspase counts, primary screen (AID 1347080); settings: A549 miR-34 inducible, Hoechst nuclei count, 48 h; measured here: total cells without miR-34 induction
Criterion: cell count strictly less than 6000. Met: 1 (yes). Not met: 0 (no).

entry_smiles=COc1cc(OC)c(C(=O)CCCCN2CCC3(CC2)NC(=O)NC3=O)cc1NS(=O)(=O)c1ccc(C(F)(F)F)cc1 assigned_category="0 (no)"
entry_smiles=COC(=O)C1=CC[C@@]23CC[C@@H]([C@@](C)(/C=C/C=C(\C)C(=O)O)OC2=O)[C@@]3(OC(C)=O)CC1 assigned_category="1 (yes)"
entry_smiles=O=C(Nc1ccccc1-c1cn2c(CN3CCNCC3)csc2n1)c1cnc2ccccc2n1 assigned_category="0 (no)"
entry_smiles=CC(C)c1cc(C(C)C)c(CC(=O)NS(=O)(=O)Oc2c(C(C)C)cccc2C(C)C)c(C(C)C)c1 assigned_category="1 (yes)"
entry_smiles=CCc1ccc(/C=C2/SC(=S)NC2=O)cc1 assigned_category="0 (no)"
entry_smiles=CC(C)(C)Cn1c(N)nc2ccc(-c3[nH]c(C(C)(C)C)nc3-c3ccc(F)cc3)nc21 assigned_category="1 (yes)"
entry_smiles=O=c1[nH]cc(CO)c(=O)[nH]1 assigned_category="1 (yes)"
entry_smiles=CC(C)[C@H](O)C(=O)O assigned_category="1 (yes)"
entry_smiles=CCCCC[C@H](O)/C=C/[C@@H]1[C@H]2C/C(=C\CCCC(=O)O)C[C@H]2C[C@H]1O assigned_category="0 (no)"

---

assay: JHH-DIPG-1 glioma cell viability, MIPE5.0 library, CellTiter-Glo luminescence, qHTS (AID 1347067); conditions: JHH-DIPG-1 glioma viability, CellTiter-Glo ATP luminescence;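 further: cells exposed to compound for 48 hours before readout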
Inconclusive results are not listed. The source made the active and inactive calls. The limit is not given here; nearly all actives have AC50 up to about 26 µM.
Outcome codes: active, inactive

molecule=CC(C)(C)c1cc(C(=O)O)c(NC(=O)Nc2ccc3[nH]ncc3c2)s1 assigned_category=inactive
molecule=CC(C)(C)C(=O)Oc1ccc2c(c1)nc(NC(=O)c1cccc([N+](=O)[O-])c1)n2CCCO assigned_category=inactive
molecule=Cc1cc(Nc2ncc3c(n2)N(C)C(=O)N(c2cc(NC(=O)c4cccc(C(F)(F)F)c4)ccc2C)C3)n(C)n1 assigned_category=active
molecule=NC1=N[C@H]2[C@H](CS[C@H]2CCCCC(=O)O)N1 assigned_category=inactive
molecule=CN1C(=O)N[C@H](Cc2c[nH]c3c(Cl)cccc23)C1=O assigned_category=inactive
molecule="Cc1ccccc1C(C(=O)NC1CCCCC1)N(C(=O)CNc1ccc(C#N)cc1)c1cccc(F)c1 (centres undefined)" assigned_category=inactive
molecule=OCCC#Cc1nc(-c2ccc(F)cc2)c(-c2ccncc2)n1CCCc1ccccc1 assigned_category=active
molecule="CN1c2cc(O)c(N=NC(N)=O)cc2CC1S(=O)(=O)O (centres undefined)" assigned_category=inactive
molecule=C=CC(=O)Nc1cc(Nc2nccc(-c3cn(C)c4ccccc34)n2)c(OC)cc1N(C)CCN(C)C assigned_category=active
molecule=O=C(O)Cn1nnc(-c2cc(N3CCC(Oc4cc(F)ccc4Br)CC3)no2)n1 assigned_category=inactive
molecule=Cc1cc2cc(Oc3ccnc(Nc4cccc(CS(=O)(=O)NCCN(C)C)c4)n3)ccc2[nH]1 assigned_category=active
molecule=Fc1ccc(-c2nc(-c3ccccc3F)[nH]c2-c2ccncc2)cc1 assigned_category=inactive
molecule=O=S(=O)(c1cccc2c(I)cccc12)N1CCCNCC1 assigned_category=inactive
molecule=COc1cc2ncnc(Nc3ccc(O)c(Br)c3)c2cc1OC assigned_category=active
